- Test system: metrazol-induced seizures
- Test protocol: Time course of antimetrazol activity of prodrugs
- Type: in vivo, mice (CF1)
- Applied conditions: Mus musculus; 60 mg/kg ip, 4 hr; read-out: Antimetrazol activity, % of animals protected, 4 hr
# reported responders at 60 mg/kg; entries follow
Give just the numeric value; % need not be written.

Worked examples, 3 molecules total:
{"columns": ["Structure", "Tested on", "Experimental result"],
 "data": [
  ["CC(=O)OCC(=O)[C@H]1CC[C@H]2[C@@H]3CC[C@H]4C[C@H](OC(C)=O)CC[C@]4(C)[C@H]3CC[C@]12C", "metrazol-induced seizures", 0],
  ["CC(=O)OCC(=O)[C@H]1CC[C@H]2[C@@H]3CC[C@H]4C[C@H](O)CC[C@]4(C)[C@H]3CC[C@]12C", "metrazol-induced seizures", 0],
  ["CCCCC(=O)O[C@@H]1CC[C@@]2(C)[C@@H](CC[C@@H]3[C@@H]2CC[C@]2(C)[C@@H](C(C)=O)CC[C@@H]32)C1", "metrazol-induced seizures", 33]
]}

Please turn your attention to the following entry.
Given item CC(=O)[C@H]1CC[C@H]2[C@@H]3CC[C@H]4C[C@H](OC(=O)C5=CN(C)C=CC5)CC[C@]4(C)[C@H]3CC[C@]12C , the value recorded as its responders at 60 mg/kg is 0

Values were extracted from patent US5232917A.
